Molecular target: Tyrosyl-tRNA synthetase, putative (Trypanosoma cruzi (strain CL Brener))
Sequence (whole entry): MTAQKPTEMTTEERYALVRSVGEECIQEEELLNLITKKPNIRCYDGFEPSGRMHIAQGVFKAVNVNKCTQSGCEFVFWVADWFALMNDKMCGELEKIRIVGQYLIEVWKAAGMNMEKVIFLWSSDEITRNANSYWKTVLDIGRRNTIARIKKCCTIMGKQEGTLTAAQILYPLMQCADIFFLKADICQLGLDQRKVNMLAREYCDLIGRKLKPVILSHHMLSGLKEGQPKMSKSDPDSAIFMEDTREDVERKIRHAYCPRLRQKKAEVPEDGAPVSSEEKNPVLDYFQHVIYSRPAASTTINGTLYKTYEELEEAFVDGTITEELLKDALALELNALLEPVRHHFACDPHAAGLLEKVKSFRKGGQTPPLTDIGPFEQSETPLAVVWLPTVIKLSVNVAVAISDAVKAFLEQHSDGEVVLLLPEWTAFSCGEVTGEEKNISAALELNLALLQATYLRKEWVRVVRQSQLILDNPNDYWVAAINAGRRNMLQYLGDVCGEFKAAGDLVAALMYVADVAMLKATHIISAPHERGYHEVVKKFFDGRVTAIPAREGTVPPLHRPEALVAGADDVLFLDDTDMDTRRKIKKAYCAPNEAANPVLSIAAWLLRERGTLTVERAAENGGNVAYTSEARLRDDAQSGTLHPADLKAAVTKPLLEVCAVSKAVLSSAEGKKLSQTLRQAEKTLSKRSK
Assay: Trypanosoma cruzi tyrosyl tRNA synthetase (TcYRS) SOP
Type: functional
Parameters: scale not given: direction of the effect not stated beside the values
Details: 30 µM
QUANTITY NAME: Percent Effect (%)
Note: unit % is implicit; provide only the numeric part.

Request: API: value(readout=Percent Effect, system=Tyrosyl-tRNA synthetase, putative (Trypanosoma cruzi (strain CL Brener))) for record COCCNC(=O)[C@@]12CCO[C@@H]1CCN(Cc1c(C)noc1C)C2
Response: 12.8

Request: API: value(readout=Percent Effect, system=Tyrosyl-tRNA synthetase, putative (Trypanosoma cruzi (strain CL Brener))) for record COc1ccc(C)cc1CC(=O)N1CCN(CC(C)O)CC1 (stereo unspecified)
Response: 18.8

Request: API: value(readout=Percent Effect, system=Tyrosyl-tRNA synthetase, putative (Trypanosoma cruzi (strain CL Brener))) for record O=C1CC2(CCN(Cc3ccccn3)C2)CN1c1cncnc1 (stereo unspecified)
Response: 5.13

Request: API: value(readout=Percent Effect, system=Tyrosyl-tRNA synthetase, putative (Trypanosoma cruzi (strain CL Brener))) for record CC(=O)N1CCOCC2(CN(Cc3ccccn3)CCO2)C1 (stereo unspecified)
Response: 2.5

Request: API: value(readout=Percent Effect, system=Tyrosyl-tRNA synthetase, putative (Trypanosoma cruzi (strain CL Brener))) for record c1ccc(CN2C[C@@H]3CCCO[C@@H]3[C@H](Nc3ccccn3)C2)nc1
Response: 16.1

Request: API: value(readout=Percent Effect, system=Tyrosyl-tRNA synthetase, putative (Trypanosoma cruzi (strain CL Brener))) for record O=C(NCc1ccccn1)[C@]12COC[C@H]1CN(C1CCC1)C2
Response: 10

Request: API: value(readout=Percent Effect, system=Tyrosyl-tRNA synthetase, putative (Trypanosoma cruzi (strain CL Brener))) for record COc1ccc(C(=O)C2CCCN(CCCn3cccn3)C2)c(OC)c1 (stereo unspecified)
Response: 17.1

Request: API: value(readout=Percent Effect, system=Tyrosyl-tRNA synthetase, putative (Trypanosoma cruzi (strain CL Brener))) for record COc1ccc(Cl)cc1CC(=O)N1CCN(CCO)CC1
Response: -2.35

Request: API: value(readout=Percent Effect, system=Tyrosyl-tRNA synthetase, putative (Trypanosoma cruzi (strain CL Brener))) for record CC(C)c1nccc([C@H]2C[C@@H]3CCN(Cc4ccco4)C[C@H]3O2)n1
Response: 15.4

Request: API: value(readout=Percent Effect, system=Tyrosyl-tRNA synthetase, putative (Trypanosoma cruzi (strain CL Brener))) for record CCn1cc(CN2CCCN(C(=O)Cc3ccc(C)nc3)CC2)cn1
Response: 9.41

Request: API: value(readout=Percent Effect, system=Tyrosyl-tRNA synthetase, putative (Trypanosoma cruzi (strain CL Brener))) for record CC(Cn1cccn1)NCc1nc(-c2cccs2)no1 (stereo unspecified)
Response: 16.1
